Reported composite z-score by item:
# Measured On: Alpha-bungarotoxin (Bungarus multicinctus)
# Experiment Summary: alpha-bungarotoxin binders on microarray, profiling panel, artefact control for SMM control protein annotation, biochemical, small-molecule microarray, Alexa647 label, 635/667 nm fluorescence (AID 1117)
# Settings: alpha-BTX-A647 binding fluorescence, higher = more signal

>  <Chem Smiles>
C[C@@H](c1ccccc1)N1C(=O)[C@H]2[C@H]3[C@H](O)[C@H](O)CC(=NO[C@@H]4O[C@H](CO)[C@@H](O)[C@H](O)[C@H]4O)[C@H]3CC[C@H]2C1=O

>  <composite z-score>
0.556

$$$$
>  <Chem Smiles>
COCOc1ccc(Br)cc1C(=O)[C@@H]1O[C@H]1c1cccc(OC)c1

>  <composite z-score>
0.187

$$$$
>  <Chem Smiles>
CC(C)CON=C1C[C@@H](O)[C@@H](O)[C@@H]2[C@@H]3C(=O)N(c4ccc(F)cc4F)C(=O)[C@@H]3CC[C@H]12

>  <composite z-score>
0.198

$$$$
